Below, each of the compounds is paired with its reported TGI value.
system: SF-539 CNS; assay: NCI tumour cell line growth inhibition, 48 h
recorded.endpoint: TGI

>>> result_value("Nc1nc2cc(CC[C@H]3C[C@@H](n4ccc5c(N)ncnc54)[C@H](O)[C@@H]3O)ccc2cc1Br")
"27.6 µM"
>>> result_value("O=C(c1cccs1)N1CCCN(C(=O)c2cccs2)C1=S")
"> 100 µM"
>>> result_value("Cc1c(Cl)cccc1NC(=O)/C=C/c1ccccc1")
"> 100 µM"
>>> result_value("O=C1CNC(=O)c2[nH]cnc2N1")
"> 100 µM"
>>> result_value("Cc1ccc(S(=O)(=O)C2=c3nc4ccccc4cc3=C3C(=O)c4ccccc4C(=O)C32)cc1 (stereo not given)")
"> 100 µM"
>>> result_value("COc1cc2cc(C(=O)N3CC(CCl)c4ccc(N(C)C)cc43)[nH]c2c(OC)c1OC (stereo not given)")
"0.2 µM"
>>> result_value("O=[N+]([O-])c1cc2ccc(N(CCO)CCO)nc2nc1N(CCO)CCO")
"> 100 µM"
>>> result_value("COc1cc(NS(C)(=O)=O)ccc1NCc1c2ccccc2nc2ccccc12")
"65.2 µM"
>>> result_value("O=C1CSC(c2ccc([N+](=O)[O-])cc2)N1c1ccc(-c2ccc(-n3c(-c4ccccc4)nc4ccccc4c3=O)cc2)cc1 (stereo not given)")
"> 100 µM"
>>> result_value("Nn1c(=O)[nH]c2ncn(Cc3ccccc3)c2c1=O")
"> 100 µM"

Reference source for all entries: PubChem BioAssay (NCI)
